B1: C9orf9 (parent)
chain: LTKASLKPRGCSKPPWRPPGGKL

# Variants of: B1
# Test Summary: protein stability index of a GFP-peptide fusion (GPS, HEK-293T) (PSI 1-6); higher = more stable;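 further: lentivirally expressed fusions sorted by FACS into six bins by GFP to DsRed ratio, PSI derived from sequencing read proportions per bin multiplied by bin number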
# Conditions Used: c terminus: native
Measure: protein stability index
Reply briefly: the number, and no unit.

Example variants with recorded protein stability index:
May I ask what protein stability index has been recorded for `P8F` ?
2.51

May I ask what protein stability index has been recorded for `W16F` ?
2.03

May I ask what protein stability index has been recorded for `A4G` ?
1.36

Next:
May I ask what protein stability index has been recorded for `G10E` ?
2.18

May I ask what protein stability index has been recorded for `S5K` ?
2.43

May I ask what protein stability index has been recorded for `S12I` ?
2.3
